Assay: DRD fibroblast viability loss – cell-based, non-viral oncogenic, luminescence, dose response (AID 1934)
Assay type: functional
Conditions: Homo sapiens
The source made the active and inactive calls. Rule as the data show it: actives have a measured EC50 and inactives only a lower limit.
A collection of molecules and their measured EC50

COc1ccc(S(=O)(=O)N2CCOc3ccccc32)cc1; 13.1 µM (inconclusive)
CCOC(=O)c1c2c(n(C)c1COC)C(=O)C(=O)c1ccc(Br)cc1-2; 2.36 µM (active)
Cc1ncsc1C(=O)Nc1nc2c(s1)CCCC2; 20.9 µM (inconclusive)

Note: attention shifts to another entry.
Asked: For `CC(C)c1onc(C(=O)N2CCN(C(c3ccccc3)c3ccccc3)CC2)c1[N+](=O)[O-]` , what is its reported EC50?
Given back: 2.69 µM (active)
